Test system: RARb homodimer (NR concentration 270 nM)
Test: PBM binding z-score (relative to random genomic background probes); higher = stronger binding; sequences stand for … in GC…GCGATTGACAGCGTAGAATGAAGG
result type: PBM binding z-score

> print(dat)
                     monomer.sequence    val
1  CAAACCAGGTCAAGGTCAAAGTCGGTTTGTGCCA   5.11
2  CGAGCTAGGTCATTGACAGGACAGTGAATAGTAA   2.77
3  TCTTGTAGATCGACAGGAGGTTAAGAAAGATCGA  0.302
4  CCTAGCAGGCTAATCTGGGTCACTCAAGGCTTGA    1.8

====

System: PPARg:RXRa 270nM:90nM, anti-RXR (NR concentration 270 nM, RXRa partner concentration 90 nM)
Test: PBM binding z-score (relative to random genomic background probes); higher = stronger binding; sequences stand for … in GC…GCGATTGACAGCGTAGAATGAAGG
Catalogue of PBM binding z-score readings, one per entry.
result type: PBM binding z-score

> print(dat)
                     monomer.sequence     val
1  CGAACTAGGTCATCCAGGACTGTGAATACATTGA    6.38
2  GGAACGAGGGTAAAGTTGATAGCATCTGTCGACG    6.72
3  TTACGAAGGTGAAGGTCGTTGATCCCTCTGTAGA    3.86
4  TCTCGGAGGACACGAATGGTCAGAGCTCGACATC    0.78
5  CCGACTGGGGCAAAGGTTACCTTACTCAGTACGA    9.12
6  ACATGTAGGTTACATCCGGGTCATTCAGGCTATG    3.99
7  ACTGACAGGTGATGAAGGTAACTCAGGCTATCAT  0.0848

====

Catalogue of PBM binding z-score readings, one per entry.
Tested on: PPARg DBDmut:RXRa IVT, anti-PPARg (DBD mutation: PPARg1 K132A/R137A, NR concentration 270 nM, RXRa partner concentration 90 nM)
Assay: PBM binding z-score (relative to random genomic background probes); higher = stronger binding; sequences stand for … in GC…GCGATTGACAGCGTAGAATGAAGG
result type: PBM binding z-score

> print(dat)
                      monomer.sequence          result.type      val
 1  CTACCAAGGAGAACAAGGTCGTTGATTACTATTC  PBM binding z-score  -0.0895
 2  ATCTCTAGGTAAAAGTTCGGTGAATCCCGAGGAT  PBM binding z-score     1.06
 3  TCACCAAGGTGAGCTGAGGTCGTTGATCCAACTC  PBM binding z-score   -0.807
 4  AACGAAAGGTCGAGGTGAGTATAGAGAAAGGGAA  PBM binding z-score    0.731
 5  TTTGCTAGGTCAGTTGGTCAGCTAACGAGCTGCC  PBM binding z-score   -0.438
 6  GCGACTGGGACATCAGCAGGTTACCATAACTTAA  PBM binding z-score   -0.236
 7  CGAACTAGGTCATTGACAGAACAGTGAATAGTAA  PBM binding z-score      1.7
 8  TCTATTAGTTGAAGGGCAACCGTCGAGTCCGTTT  PBM binding z-score    0.699
 9  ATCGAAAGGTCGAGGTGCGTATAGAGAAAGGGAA  PBM binding z-score    0.819
10  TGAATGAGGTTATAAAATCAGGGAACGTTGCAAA  PBM binding z-score     1.21
11  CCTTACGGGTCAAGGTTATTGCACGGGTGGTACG  PBM binding z-score   -0.367
12  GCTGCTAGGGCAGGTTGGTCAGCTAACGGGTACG  PBM binding z-score    -1.41
13  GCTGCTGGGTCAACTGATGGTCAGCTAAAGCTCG  PBM binding z-score    0.524
14  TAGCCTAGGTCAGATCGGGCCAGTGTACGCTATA  PBM binding z-score    -1.37
15  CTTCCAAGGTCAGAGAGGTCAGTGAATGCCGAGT  PBM binding z-score   -0.247
16  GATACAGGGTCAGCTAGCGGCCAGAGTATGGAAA  PBM binding z-score   0.0696
17  CGAACGAGGGCATGAATTGATAGCAAATGCCGAT  PBM binding z-score    0.103
18  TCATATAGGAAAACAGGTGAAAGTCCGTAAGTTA  PBM binding z-score   0.0218
19  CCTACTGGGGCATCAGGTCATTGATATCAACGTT  PBM binding z-score     1.29
20  CCTAGTTGGTCAGGAGGTCGCACACCGGATATGA  PBM binding z-score  -0.0553
21  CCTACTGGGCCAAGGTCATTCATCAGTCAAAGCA  PBM binding z-score   -0.258
22  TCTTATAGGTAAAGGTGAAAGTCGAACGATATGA  PBM binding z-score        2
23  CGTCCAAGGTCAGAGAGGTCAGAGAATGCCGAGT  PBM binding z-score   0.0352
24  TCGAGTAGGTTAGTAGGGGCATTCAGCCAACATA  PBM binding z-score    0.408
25  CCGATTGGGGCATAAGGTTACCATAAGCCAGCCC  PBM binding z-score     -1.1
26  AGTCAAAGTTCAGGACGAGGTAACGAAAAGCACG  PBM binding z-score    0.538
27  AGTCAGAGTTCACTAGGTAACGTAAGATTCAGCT  PBM binding z-score     1.02
28  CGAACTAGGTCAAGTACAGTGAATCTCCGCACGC  PBM binding z-score     1.96
29  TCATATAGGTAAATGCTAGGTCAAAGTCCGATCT  PBM binding z-score    0.472
30  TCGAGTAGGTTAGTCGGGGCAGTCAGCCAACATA  PBM binding z-score   -0.923
31  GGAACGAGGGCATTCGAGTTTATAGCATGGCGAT  PBM binding z-score   -0.439
32  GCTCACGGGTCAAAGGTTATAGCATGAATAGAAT  PBM binding z-score    0.462
33  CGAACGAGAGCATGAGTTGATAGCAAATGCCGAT  PBM binding z-score   0.0684
34  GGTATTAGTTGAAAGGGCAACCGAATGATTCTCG  PBM binding z-score     1.15
35  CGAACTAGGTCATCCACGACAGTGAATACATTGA  PBM binding z-score     5.88
36  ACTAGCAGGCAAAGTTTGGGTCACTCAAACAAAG  PBM binding z-score   -0.258
37  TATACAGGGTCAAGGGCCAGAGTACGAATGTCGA  PBM binding z-score     2.98
38  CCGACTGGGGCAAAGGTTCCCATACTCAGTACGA  PBM binding z-score   -0.428
39  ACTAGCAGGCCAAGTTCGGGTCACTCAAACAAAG  PBM binding z-score   -0.452
40  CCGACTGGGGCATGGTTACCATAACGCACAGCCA  PBM binding z-score   -0.776
